- Tested on: S. pneumoniae* GC1894 (Clinical)
- Experimental Details: MIC broth microdilution, S. pneumoniae GC1894 (Clinical)
- Format: cell-based
- Condition Context: 18-22 hours at 35° C.
Measured Attribute: minimum inhibitory concentration (MIC)

                                   molecule                      measured_attribute  value_observed
0  CN(C)c1cc(NC(=O)CNOC(C)(C)C)c(O)c2c1C[C@H]1C[C@H]3[C@H](N(C)C)C(O)=C(C(N)=O)C(=O)[C@@]3(O)C(O)=C1C2=O  minimum inhibitory concentration (MIC)            0.25
1  CONCC(=O)Nc1cc(N(C)C)c2c(c1O)C(=O)C1=C(O)[C@]3(O)C(=O)C(C(N)=O)=C(O)[C@@H](N(C)C)[C@@H]3C[C@@H]1C2  minimum inhibitory concentration (MIC)            0.25
2  CN(C)[C@@H]1C(O)=C(C(N)=O)C(=O)[C@@]2(O)C(O)=C3C(=O)c4c(O)c(NC(=O)CN5CCCCO5)cc(-c5cccs5)c4C[C@H]3C[C@@H]12  minimum inhibitory concentration (MIC)               2
3  CN(C)c1cc(NC(=O)CN(O)C2CCCCC2)c(O)c2c1C[C@H]1C[C@H]3[C@H](N(C)C)C(O)=C(C(N)=O)C(=O)[C@@]3(O)C(O)=C1C2=O  minimum inhibitory concentration (MIC)            0.25
4  CON(C)CC(=O)Nc1cc(N(C)C)c2c(c1O)C(=O)C1=C(O)[C@]3(O)C(=O)C(C(N)=O)=C(O)[C@@H](N(C)C)[C@@H]3C[C@@H]1C2  minimum inhibitory concentration (MIC)            0.50
5  CN(C)c1ccc(O)c2c1C[C@H]1C[C@H]3[C@H](N(C)C)C(O)=C(C(N)=O)C(=O)[C@@]3(O)C(O)=C1C2=O [Minocycline, reference compound]  minimum inhibitory concentration (MIC)               4
